settings: Cytotoxicity IC50
Where a SMILES comes first, the peptide text is derived from it. [ ]: non-standard residue; d: D form. The star is where a group is joined. NHCH2CH2OH = OCCN*; For = O=C*
Please go through the items and note down their IC50.

These recorded examples may help you get a feel for the data.
MOLECULE	IC50
CC(C)C[C@@H](NC(=O)[C@H](C)NC(=O)[C@H](NC(=O)[C@H](C)NC(=O)CNC(=O)[C@@H](NC=O)C(C)C)C(C)C)C(=O)N[C@H](C(=O)N[C@@H](C(=O)N[C@@H](Cc1c[nH]c2ccccc12)C(=O)N[C@@H](C(=O)N[C@@H](Cc1c[nH]c2ccccc12)C(=O)N[C@H](CC(C)C)C(=O)N[C@@H](Cc1c[nH]c2ccccc12)C(=O)N[C@H](CC(C)C)C(=O)N[C@@H](Cc1c[nH]c2ccccc12)C(=O)NCCO)C(C)C)C(C)C)C(C)C [B02] (For-VGA[dV]A[dL]V[dV]W[dV]W[dL]W[dL]W-NHCH2CH2OH)	17 nM
CC(C)C[C@@H](NC(=O)[C@H](Cc1c[nH]c2ccccc12)NC(=O)[C@H](NC(=O)[C@@H](NC(=O)[C@H](NC(=O)[C@H](C)NC(=O)[C@H](NC(=O)[C@H](C)NC(=O)CNC(=O)[C@@H](NC=O)C(C)C)C(C)C)C(C)C)C(C)C)C(C)C)C(=O)N[C@@H](Cc1c[nH]c2ccccc12)C(=O)N[C@@H](C(=O)N[C@@H](Cc1c[nH]c2ccccc12)C(=O)N[C@@H](C(=O)N[C@@H](Cc1c[nH]c2ccccc12)C(=O)NCCO)C(C)C)C(C)C [B01] (For-VGA[dV]A[dV]V[dV]W[dL]W[dV]W[dV]W-NHCH2CH2OH)	17 nM
CC(C)C[C@@H](NC(=O)[C@H](Cc1c[nH]c2ccccc12)NC(=O)[C@@H](CC(C)C)NC(=O)[C@H](Cc1c[nH]c2ccccc12)NC(=O)[C@@H](CC(C)C)NC(=O)[C@H](Cc1c[nH]c2ccccc12)NC(=O)[C@H](NC(=O)[C@@H](NC(=O)[C@H](NC(=O)[C@H](C)NC(=O)[C@H](NC(=O)[C@H](C)NC(=O)CNC(=O)[C@@H](NC=O)C(C)C)C(C)C)C(C)C)C(C)C)C(C)C)C(=O)N[C@@H](Cc1c[nH]c2ccccc12)C(=O)NCCO [A1] (For-VGA[dV]A[dV]V[dV]W[dL]W[dL]W[dL]W-NHCH2CH2OH)	4.1 nM

Provide each entry's IC50 from the list below.
1. CC(C)C[C@@H](NC(=O)[C@H](C)NC(=O)CNC(=O)[C@@H](NC=O)C(C)C)C(=O)N[C@@H](C)C(=O)N[C@@H](C(=O)N[C@H](C(=O)N[C@@H](C(=O)N[C@@H](Cc1c[nH]c2ccccc12)C(=O)N[C@@H](C(=O)N[C@@H](Cc1c[nH]c2ccccc12)C(=O)N[C@H](CC(C)C)C(=O)N[C@@H](Cc1c[nH]c2ccccc12)C(=O)N[C@@H](C(=O)N[C@@H](Cc1c[nH]c2ccccc12)C(=O)NCCO)C(C)C)C(C)C)C(C)C)C(C)C)C(C)C [B04] (For-VGA[dL]A[dV]V[dV]W[dV]W[dL]W[dV]W-NHCH2CH2OH)
2. CC(C)C[C@@H](NC(=O)[C@H](C)NC(=O)CNC(=O)[C@@H](NC=O)C(C)C)C(=O)N[C@@H](C)C(=O)N[C@@H](C(=O)N[C@H](C(=O)N[C@@H](C(=O)N[C@@H](Cc1c[nH]c2ccccc12)C(=O)N[C@@H](C(=O)N[C@@H](Cc1c[nH]c2ccccc12)C(=O)N[C@@H](C(=O)N[C@@H](Cc1c[nH]c2ccccc12)C(=O)N[C@@H](C(=O)N[C@@H](Cc1c[nH]c2ccccc12)C(=O)NCCO)C(C)C)C(C)C)C(C)C)C(C)C)C(C)C)C(C)C [B03] (For-VGA[dL]A[dV]V[dV]W[dV]W[dV]W[dV]W-NHCH2CH2OH)

["41 nM", "38 nM"]
